src = patent US4994477A

targetUnderTest: UniProt:P00797
Sequence (P00797 67-406): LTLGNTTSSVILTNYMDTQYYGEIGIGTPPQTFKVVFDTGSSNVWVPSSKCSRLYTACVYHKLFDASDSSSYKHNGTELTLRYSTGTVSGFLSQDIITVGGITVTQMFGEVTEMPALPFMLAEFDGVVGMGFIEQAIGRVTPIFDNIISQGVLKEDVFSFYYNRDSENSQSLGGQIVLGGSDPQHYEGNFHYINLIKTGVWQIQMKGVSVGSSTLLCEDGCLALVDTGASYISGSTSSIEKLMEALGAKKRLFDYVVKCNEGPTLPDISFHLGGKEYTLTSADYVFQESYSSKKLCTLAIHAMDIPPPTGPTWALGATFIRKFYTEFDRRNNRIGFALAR
reportedProperty: IC50 (nM)

CC(C)C[C@H](O)[C@H](O)[C@H](CC1CCCCC1)NC(=O)[C@H](CC(C)C)N1Cc2c([nH]c3ccccc23)C1=O | 100
CC(C)C[C@H](O)[C@H](O)[C@H](CC1CCCCC1)NC(=O)[C@H](Cc1c[nH]cn1)NC(=O)c1nc2ccccc2s1 | 31

a: CCN1C[C@@H]([C@H](O)[C@H](CC2CCCCC2)NC(=O)C(Cc2cc[nH]n2)N2Cc3c([nH]c4ccccc34)C2=O)OC1=O (stereo partly drawn)
b: CCN1C[C@@H]([C@H](O)[C@H](CC2CCCCC2)NC(=O)C(Cc2cscn2)N2Cc3c([nH]c4ccccc34)C2=O)OC1=O (stereo partly drawn)
c: CC(C)C[C@H](O)[C@H](O)[C@H](CC1CCCCC1)NC(=O)[C@H](Cc1c[nH]cn1)N1Cc2c([nH]c3ccccc23)C1=O
d: CC(C)C[C@H](O)[C@H](O)[C@H](CC1CCCCC1)NC(=O)[C@H](CCC(=O)O)NC(=O)c1cc2ccccc2[nH]1
# rank by IC50, ascending (min first) Please write the labels in the order that was asked for. c, b, a, d
